The origin of these recorded values is patent US7314864B1.

test system: F11 cells transfected with FAD genes (V642I APP, NL-APP, M146L PS-1, N141I PS-2); assay: FAD gene-induced F11 cell death, trypan blue exclusion assay; format: cell-based, rat/mouse hybrid; conditions: 10 nM polypeptide
TEST READOUT: suppression of FAD gene-induced cell death

Incoming: Observed suppression of FAD gene-induced cell death on F11 cells transfected with FAD genes (V642I APP, NL-APP, M146L PS-1, N141I PS-2) for SEQ ID NO: 48: HNG with Cys at position 8 substituted with Lys (MAPRGFSKLLLLTGEIDLPVKRRA) , please.
Outgoing: inhibited neuronal death

Incoming: Could you do the same for SEQ ID NO: 46: HNG with Cys at position 8 substituted with His (MAPRGFSHLLLLTGEIDLPVKRRA) , please?
Outgoing: inhibited neuronal death

Incoming: Could you do the same for SEQ ID NO: 54: HNG with Cys at position 8 substituted with Arg (MAPRGFSRLLLLTGEIDLPVKRRA) , please?
Outgoing: inhibited neuronal death
